System: Wolbachia pipientis
testSummary: Anti-Wolbachia Cell-Based Screen
Assay type: functional
Parameters: scale not given: in the data most compounds retested in dose-response had high values
testSettings: 5 µM
Out of some 48,000 compounds screened, about 13,000 (27%) showed an effect of 50% or more. Some of the results follow.
Recorded Percent Effect, one value per entry.
endpointLabel: Percent Effect (%)

[
  {
    "compound": "CN1CCN(C[C@H]2CC[C@@H](Cc3ccc(CN4CCCC4)cc3)O2)CC1",
    "recordedResult": -1.169
  },
  {
    "compound": "Cc1cc(C)cc(N(C)S(=O)(=O)c2cc3c(c(C(=O)O)c2)OCCO3)c1",
    "recordedResult": -3.92
  },
  {
    "compound": "Cc1ccc(NS(=O)(=O)c2cc3c(c(C(=O)O)c2)OCCO3)c(F)c1",
    "recordedResult": -7.996
  },
  {
    "compound": "CCc1cnc(NCCS(=O)(=O)CC(C)C)nc1",
    "recordedResult": -2.356
  },
  {
    "compound": "CCc1cccc(NS(=O)(=O)c2cc3c(c(C(=O)O)c2)OCCO3)c1",
    "recordedResult": 10.09
  },
  {
    "compound": "CC[C@@H]1N(CC2CCOCC2)CCC[C@]12CCC(=O)N2.O=C(O)C(F)(F)F",
    "recordedResult": -7.738
  },
  {
    "compound": "CCCC(=O)Nc1ccc2c(c1)C1(CCOCC1)CN2CCOC.O=C(O)C(F)(F)F",
    "recordedResult": 114.8
  },
  {
    "compound": "COCCN1CCC2(CC1)CC(N1CCOCC1)c1ccc(C)cc12.O=C(O)C(F)(F)F.O=C(O)C(F)(F)F (stereo unspecified)",
    "recordedResult": -12.46
  },
  {
    "compound": "Cc1n[nH]cc1CNC(=O)CCCc1cccs1",
    "recordedResult": -6.834
  },
  {
    "compound": "Cc1cc(C)c(CCNC(=O)CN2CCCN(C(N)=O)CC2)c(C)c1",
    "recordedResult": 7.662
  },
  {
    "compound": "CCC(=O)Nc1ccc2c(c1)C1(CCOCC1)CN2CCOC.O=C(O)C(F)(F)F",
    "recordedResult": 101.5
  },
  {
    "compound": "CN(C)C(=O)N1CC2(CCOCC2)c2cc(NC(=O)CCO)ccc21",
    "recordedResult": -8.643
  },
  {
    "compound": "COc1cc(N2C[C@@H](C)[C@](O)(C3CC3)C2)nc(N)n1",
    "recordedResult": -24.25
  },
  {
    "compound": "CN(c1ccc(F)c(F)c1)S(=O)(=O)c1cc2c(c(C(=O)O)c1)OCCO2",
    "recordedResult": -16.04
  },
  {
    "compound": "COCCN1CC2(CCOCC2)c2cc(NC(=O)C3CC=CC3)ccc21.O=C(O)C(F)(F)F",
    "recordedResult": 98.06
  },
  {
    "compound": "COCCN1C(=O)CO[C@H]2CN(Cc3c[nH]nc3-c3ccccc3)C[C@@H]21",
    "recordedResult": -12.21
  },
  {
    "compound": "COc1ccc(-c2n[nH]cc2CN2CCSCC2)c(OC)c1",
    "recordedResult": 5.008
  },
  {
    "compound": "Cc1n[nH]c(SCC(=O)N2C[C@H]3CC[C@@H]2CN(c2ncccn2)C3)n1",
    "recordedResult": -6.945
  },
  {
    "compound": "CC(C)N(C)Cc1cnc2n1CCN(Cc1ccco1)C2.O=C(O)C(F)(F)F.O=C(O)C(F)(F)F",
    "recordedResult": 165.9
  },
  {
    "compound": "Cc1cccc(NS(=O)(=O)c2cc3c(c(C(=O)O)c2)OCCO3)c1",
    "recordedResult": 105.7
  },
  {
    "compound": "COCc1nc2n(n1)CCCC2Nc1nc(C2CC2)ns1 (stereo unspecified)",
    "recordedResult": -6.792
  }
]

----------
Test system: Wolbachia pipientis
testSummary: Anti-Wolbachia Cell-Based Screen
Format: functional
Parameters: scale not given: in the data most compounds retested in dose-response had high values
testSettings: 5 µM
In all, about 48,000 compounds went through this assay and about 13,000 (27%) showed an effect of 50% or more. This is one part of the list.
endpointLabel: Percent Effect (%)

[
  {
    "compound": "O=C(NCc1ccc(C(=O)O)o1)c1ccc(F)cc1",
    "system": "Wolbachia pipientis",
    "unitAbbreviation": "%",
    "recordedResult": 8.231
  },
  {
    "compound": "CC1(Cc2ccc(F)cc2)Cc2cc(C(=O)NCCO)ccc2O1 (configuration not stated)",
    "system": "Wolbachia pipientis",
    "unitAbbreviation": "%",
    "recordedResult": 96.1
  },
  {
    "compound": "CC(C)c1ccc(CC2(C)Cc3cc(CC(=O)O)ccc3O2)cc1 (configuration not stated)",
    "system": "Wolbachia pipientis",
    "unitAbbreviation": "%",
    "recordedResult": 103.5
  },
  {
    "compound": "O=C1CCC(C(=O)N2CCOC(Cc3ccccc3Cl)C2)=NN1 (configuration not stated)",
    "system": "Wolbachia pipientis",
    "unitAbbreviation": "%",
    "recordedResult": -0.3624
  },
  {
    "compound": "CC(=O)N1Cc2nccn2CC(CNC(=O)c2cnccn2)C1 (configuration not stated)",
    "system": "Wolbachia pipientis",
    "unitAbbreviation": "%",
    "recordedResult": -28.44
  },
  {
    "compound": "O=C(Nc1nncs1)c1ccc(O)nc1",
    "system": "Wolbachia pipientis",
    "unitAbbreviation": "%",
    "recordedResult": -7.078
  },
  {
    "compound": "O=C(O)CCCc1ccc2c(c1)CC(=O)N2",
    "system": "Wolbachia pipientis",
    "unitAbbreviation": "%",
    "recordedResult": -9.679
  },
  {
    "compound": "CCSCCC(=O)Nc1ncn(Cc2ccccc2)n1",
    "system": "Wolbachia pipientis",
    "unitAbbreviation": "%",
    "recordedResult": -26.44
  },
  {
    "compound": "CCCc1nc(C)c(CN2CC3(CCOC3)CCC2=O)s1 (configuration not stated)",
    "system": "Wolbachia pipientis",
    "unitAbbreviation": "%",
    "recordedResult": -4.631
  },
  {
    "compound": "O=C(NCCCc1ccc(F)cc1)c1ccc(N2CCOCC2)cc1",
    "system": "Wolbachia pipientis",
    "unitAbbreviation": "%",
    "recordedResult": -12.9
  },
  {
    "compound": "CC(C)N(Cc1ccc(C(=O)O)o1)C(C)C.Cl",
    "system": "Wolbachia pipientis",
    "unitAbbreviation": "%",
    "recordedResult": -3.405
  },
  {
    "compound": "CC1(Cc2ccc(Cl)cc2)Cc2cc(CCC(=O)O)ccc2O1 (configuration not stated)",
    "system": "Wolbachia pipientis",
    "unitAbbreviation": "%",
    "recordedResult": 128.5
  }
]

----------
Tested on: Wolbachia pipientis
testSummary: Anti-Wolbachia Cell-Based Screen
Type: functional
Design: scale not given: in the data most compounds retested in dose-response had high values
testSettings: 5 µM
In all, about 48,000 compounds went through this assay and about 13,000 (27%) showed an effect of 50% or more. The list shows a part of the results.
Recorded Percent Effect, one value per entry.

[
  {
    "compound": "CSCC(C)(O)CNC(=O)c1cc(F)ccc1Br (stereo unspecified)",
    "unitAbbreviation": "%",
    "Percent Effect": -2.784
  },
  {
    "compound": "COCCN(CCC#N)S(=O)(=O)c1cc(F)ccc1F",
    "unitAbbreviation": "%",
    "Percent Effect": 6.072
  },
  {
    "compound": "CCNc1ccnc(N2CCCC(CCOC)(C(=O)O)C2)n1 (stereo unspecified)",
    "unitAbbreviation": "%",
    "Percent Effect": -0.7265
  },
  {
    "compound": "CCn1nc(C)c(NC(=O)c2cc(NC(=O)C(C)C)n(C)n2)c1C",
    "unitAbbreviation": "%",
    "Percent Effect": 2.528
  },
  {
    "compound": "CC(C)c1noc(-c2ccc(NCc3noc(C(C)C)n3)nc2)n1",
    "unitAbbreviation": "%",
    "Percent Effect": -9.684
  },
  {
    "compound": "CC(=O)NCCCC(=O)NC(C)c1nnc2n1CCC2 (stereo unspecified)",
    "unitAbbreviation": "%",
    "Percent Effect": 91.49
  }
]

----------
Recorded Percent Effect, one value per entry.
Test system: Wolbachia pipientis
testSummary: Anti-Wolbachia Cell-Based Screen
Type: functional
Parameters: scale not given: in the data most compounds retested in dose-response had high values
testSettings: 5 µM
The campaign covered roughly 48,000 compounds. About 13,000 (27%) showed an effect of 50% or more. The list shows a part of the results.

[
  {
    "molecule": "CCCc1cc(NCc2cc(C)on2)n2nccc2n1",
    "system": "Wolbachia pipientis",
    "Percent Effect / %": 18.67
  },
  {
    "molecule": "CCn1nnnc1-c1cccc(NC(=O)COC2CCCC2)c1",
    "system": "Wolbachia pipientis",
    "Percent Effect / %": 5.943
  },
  {
    "molecule": "Cc1ccc(-c2cc(-c3nc(CN4CCN(C)CC4)no3)n[nH]2)cc1",
    "system": "Wolbachia pipientis",
    "Percent Effect / %": -2.901
  },
  {
    "molecule": "Cc1cc(SC(C)(C)C)ccc1NC(C)C(=O)NC(N)=O (stereo unspecified)",
    "system": "Wolbachia pipientis",
    "Percent Effect / %": 0.5682
  },
  {
    "molecule": "O=C1COc2ccccc2N1CCCn1cnnn1",
    "system": "Wolbachia pipientis",
    "Percent Effect / %": -11.05
  },
  {
    "molecule": "CCC(O)CN(Cc1ccccc1)S(=O)(=O)c1cnc(C)s1 (stereo unspecified)",
    "system": "Wolbachia pipientis",
    "Percent Effect / %": -9.422
  }
]

The measurements presented in this section are drawn from ChEMBL document CHEMBL3988442.
